Recorded MIC for the following molecules
- Tested on: Pseudomonas aeruginosa
- Assay details: Antibacterial activity against Pseudomonas aeruginosa MTCC 441 assessed as growth inhibition by broth microdilution method
- Format: functional
Response body: numeric value in µg/mL, unit text excluded.

Solved cases below.
• N#Cc1sc2ncnc(N3CCN(C(=O)C4COc5ccccc5O4)CC3)c2c1-c1ccc(Cl)cc1 (centres undefined) = 250
• N#Cc1sc2ncnc(Cl)c2c1-c1ccc(Cl)cc1 = 250
• Cc1cccc(Nc2ncnc3sc(C#N)c(-c4ccc(Cl)cc4)c23)c1 = 200
• N#Cc1sc2ncnc(NCc3ccccc3)c2c1-c1ccc(Cl)cc1 = 250
• NC(=O)c1sc2nc[nH]c(=O)c2c1-c1ccc(Cl)cc1 = 200
• N#Cc1sc2ncnc(Nc3ccccc3Cl)c2c1-c1ccc(Cl)cc1 = 62.5

### Prompt Look up MIC: Cc1ccccc1Nc1ncnc2sc(C#N)c(-c3ccc(Cl)cc3)c12
### Response 200

### Prompt Look up MIC: N#Cc1sc2ncnc(N3CCN(c4nsc5ccccc45)CC3)c2c1-c1ccc(Cl)cc1
### Response 250

### Prompt Look up MIC: N#Cc1sc2ncnc(Nc3cccc(Cl)c3)c2c1-c1ccc(Cl)cc1
### Response 100

###

- Test system: Pseudomonas aeruginosa
- Assay details: Antibacterial activity against Pseudomonas aeruginosa MTCC 441 assessed as growth inhibition by broth microdilution method
- Type: functional
Recorded MIC for the following compounds
Response body: numeric value in µg/mL, unit text excluded.

Solved cases below.
- N#Cc1sc2nc[nH]c(=O)c2c1-c1ccc(Cl)cc1: 62.5
- N#Cc1sc2ncnc(N3CCOCC3)c2c1-c1ccc(Cl)cc1: 200
- O=C(N[C@H](CO)[C@H](O)c1ccc([N+](=O)[O-])cc1)C(Cl)Cl: 50
- N#Cc1sc2ncnc(N3CCN(c4cccc(Cl)c4Cl)CC3)c2c1-c1ccc(Cl)cc1: 100
- N#Cc1sc2ncnc(N3CCNCC3)c2c1-c1ccc(Cl)cc1: 250

### Prompt Look up MIC: CCOC(=O)N1CCN(c2ncnc3sc(C#N)c(-c4ccc(Cl)cc4)c23)CC1
### Response 100

### Prompt Look up MIC: N#Cc1sc2ncnc(N3CCCCC3)c2c1-c1ccc(Cl)cc1
### Response 250

### Prompt Look up MIC: CCN(CC)c1ncnc2sc(C#N)c(-c3ccc(Cl)cc3)c12
### Response 250

### Prompt Look up MIC: NC(=O)c1sc(N)c(C(N)=O)c1-c1ccc(Cl)cc1
### Response 250

### Prompt Look up MIC: CCn1cc(C(=O)O)c(=O)c2cc(F)c(N3CCNCC3)cc21
### Response 10
